B1: Arginine-glutamic acid dipeptide repeats protein, residues 502 to 543; numbered along this chain, Q9P2R6 (parent)
chain: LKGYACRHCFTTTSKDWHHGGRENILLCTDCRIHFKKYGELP

Variants of: B1
Experiment: abundance fitness (aPCA) (normalised: wild type 0, dead -1); higher = more abundant; growth selection in yeast, the domain comes from the species named
Settings: Homo sapiens
Hi all, reminder that labels come from abundance fitness, split as LOW: < -0.4; MEDIUM: ≥ -0.4 and < -0.2; HIGH: ≥ -0.2

Lab note: sort "G20P" into the matching abundance fitness band.
MEDIUM

Lab note: sort "H34D" into the matching abundance fitness band.
MEDIUM

Lab note: sort "L26F" into the matching abundance fitness band.
MEDIUM

Lab note: sort "C28V" into the matching abundance fitness band.
LOW

Lab note: sort "A5K" into the matching abundance fitness band.
HIGH

Lab note: sort "H8G" into the matching abundance fitness band.
MEDIUM

Lab note: sort "C31K" into the matching abundance fitness band.
LOW

Lab note: sort "C6A" into the matching abundance fitness band.
LOW

Lab note: sort "N24S" into the matching abundance fitness band.
HIGH

Lab note: sort "L1A" into the matching abundance fitness band.
HIGH
